- MEASURED_ON: protein-protein interaction between Kras and SOS1 (biotin-tagged human Kras loaded with GDP, His-tagged human SOS1) (Homo sapiens (Human), UniProt P01116, G12D)
- MEASUREMENT_DESCRIPTION: Protein-protein interaction inhibition between Kras and SOS1 (KrasG12D-SOS PPI) using AlphaScreen
- Format: biochemical
- APPLIED_CONDITIONS: AlphaScreen; biotin-tagged human Kras loaded with GDP, His-tagged human SOS1; read-out: KRAS G12D-SOS PPI IC50
Bridge positions count the residues as written; N and C are the ends. Square brackets hold non-standard residues; d marks the D form. Peptide text beside a SMILES is read from it. * marks the point of attachment. hPhe(3-Cl-4-CF3) = N[C@@H](CCc1ccc(C(F)(F)F)c(Cl)c1)C(=O)O; NMePhe(4-CF3) = CN[C@@H](Cc1ccc(C(F)(F)F)cc1)C(=O)O; NMeI = CC[C@H](C)[C@H](NC)C(=O)O; NMeD = CN[C@@H](CC(=O)O)C(=O)O; NMeL = CN[C@@H](CC(C)C)C(=O)O; NMeA = CN[C@@H](C)C(=O)O; Pyrrolidide = C1CCN(*)C1; Ac5c = NC1(C(=O)O)CCCC1; Aze = O=C(O)[C@@H]1CCN1; NEtG = CCNCC(=O)O
READOUT_TYPE: IC50

Lab book: IC50 of CC[C@H](C)[C@@H]1NC(=O)[C@H](CC(C)C)N(C)C(=O)C[C@@H](C(=O)N2CCCC2)N(C)C(=O)[C@H]([C@@H](C)CC)N(C)C(=O)C2(CCCC2)NC(=O)[C@@H]2CCCN2C(=O)[C@H](CCc2ccc(C(F)(F)F)c(Cl)c2)NC(=O)CN(CC)C(=O)[C@H](Cc2ccc(C(F)(F)F)cc2)N(C)C(=O)[C@@H]2CCN2C(=O)[C@H](C)N(C)C1=O [Compound 1159] ([NMeL]I[NMeA][Aze][NMePhe(4-CF3)][NEtG][hPhe(3-Cl-4-CF3)]P[Ac5c][NMeI][NMeD]-Pyrrolidide; lactam N-11) noted as 2.8 nM

----------
- MEASURED_ON: protein-protein interaction between Kras and SOS1 (biotin-tagged human Kras loaded with GDP, His-tagged human SOS1) (Homo sapiens (Human), UniProt P01116, G12D)
- MEASUREMENT_DESCRIPTION: Protein-protein interaction inhibition between Kras and SOS1 (KrasG12D-SOS PPI) using AlphaScreen;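 note: kras produced in E. coli, Ni-coupled donor beads and streptavidin acceptor beads, excitation 680 nm with emission detected at 520–620 nm via singlet oxygen transfer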
- Format: biochemical
- APPLIED_CONDITIONS: AlphaScreen; biotin-tagged human Kras loaded with GDP, His-tagged human SOS1; read-out: KRAS G12D-SOS PPI IC50
Bridge positions count the residues as written; N and C are the ends. Square brackets hold non-standard residues; d marks the D form. Peptide text beside a SMILES is read from it. * marks the point of attachment. hPhe(3-Cl-4-CF3) = N[C@@H](CCc1ccc(C(F)(F)F)c(Cl)c1)C(=O)O; Pro(trans-4-Ph) = O=C(O)[C@@H]1C[C@@H](c2ccccc2)CN1; NMePhe(4-Me) = CN[C@@H](Cc1ccc(C)cc1)C(=O)O; NMeNle(6-CHF2) = CN[C@@H](CCCCC(F)F)C(=O)O; NMeGly(cPent) = CN[C@H](C(=O)O)C1CCCC1; NMeGly(cBu) = CN[C@H](C(=O)O)C1CCC1; NMeCha = CN[C@@H](CC1CCCCC1)C(=O)O; Hyp = O=C(O)[C@@H]1C[C@@H](O)CN1; NMeAhp(2) = CCCCC[C@H](NC)C(=O)O; NMeChg = CN[C@H](C(=O)O)C1CCCCC1; NMeI = CC[C@H](C)[C@H](NC)C(=O)O; NMeD = CN[C@@H](CC(=O)O)C(=O)O; NMeL = CN[C@@H](CC(C)C)C(=O)O; NMeNva = CCC[C@H](NC)C(=O)O; NMeV = CN[C@H](C(=O)O)C(C)C; Azetidin(1-yl) = C1CN(*)C1; Morpholide = C1CN(*)CCO1; NMeA = CN[C@@H](C)C(=O)O; Piperidide = C1CCN(*)CC1; Pyrrolidide = C1CCN(*)C1; Ac5c = NC1(C(=O)O)CCCC1; Aze = O=C(O)[C@@H]1CCN1; NEtG = CCNCC(=O)O; Sar = CNCC(=O)O
READOUT_TYPE: IC50 (nM)
The figure you give is taken to be in nM; do not add the unit.

Reference set (6 entries):
Lab book: IC50 of CCCCC[C@H]1C(=O)N[C@@H]([C@@H](C)CC)C(=O)N[C@@H](C)C(=O)N2CC[C@H]2C(=O)N(C)[C@@H](Cc2ccc(C)cc2)C(=O)N(C)CC(=O)N[C@@H](CCc2ccc(C(F)(F)F)c(Cl)c2)C(=O)N2CCC[C@H]2C(=O)NC2(CCCC2)C(=O)N(C)[C@@H]([C@@H](C)CC)C(=O)N(C)[C@H](C(=O)N(C)C)CC(=O)N1C [Compound 342] ([NMeAhp(2)]IA[Aze][NMePhe(4-Me)][Sar][hPhe(3-Cl-4-CF3)]P[Ac5c][NMeI][NMeD]-NMe2; lactam N-11) noted as 0.95

Lab book: IC50 of CC[C@H](C)[C@@H]1NC(=O)[C@H](CC(C)C)N(C)C(=O)C[C@@H](C(=O)N2CCCCC2)N(C)C(=O)[C@H](C(C)C)N(C)C(=O)C2(CCCC2)NC(=O)[C@@H]2CCCN2C(=O)[C@H](CCc2ccc(C(F)(F)F)c(Cl)c2)NC(=O)CN(C)C(=O)[C@H](C2CCC2)N(C)C(=O)[C@@H]2CCN2C(=O)[C@H](C)N(C)C1=O [Compound 446] ([NMeL]I[NMeA][Aze][NMeGly(cBu)][Sar][hPhe(3-Cl-4-CF3)]P[Ac5c][NMeV][NMeD]-Piperidide; lactam N-11) noted as 1.8

Lab book: IC50 of CC[C@H](C)[C@@H]1NC(=O)[C@H](CC(C)C)N(C)C(=O)C[C@@H](C(=O)N2CCCCC2)N(C)C(=O)[C@H](C(C)C)N(C)C(=O)[C@@H](C)NC(=O)[C@@H]2CCCN2C(=O)[C@H](CCc2ccc(C(F)(F)F)c(Cl)c2)NC(=O)CN(C)C(=O)[C@H](CC2CCCCC2)N(C)C(=O)[C@@H]2CCN2C(=O)[C@H](C)N(C)C1=O [Compound 1174] ([NMeL]I[NMeA][Aze][NMeCha][Sar][hPhe(3-Cl-4-CF3)]P[dA][NMeV][NMeD]-Piperidide; lactam N-11) noted as 62

Lab book: IC50 of CCCCC[C@H]1C(=O)N[C@@H]([C@@H](C)CC)C(=O)N[C@@H](C)C(=O)N2CC[C@H]2C(=O)N(C)[C@@H](CC2CCCCC2)C(=O)N(C)CC(=O)N[C@@H](CCc2ccc(C(F)(F)F)c(Cl)c2)C(=O)N2CCC[C@H]2C(=O)NC2(CCCC2)C(=O)N(C)[C@@H](C2CCCC2)C(=O)N(C)[C@H](C(=O)N2CCC2)CC(=O)N1C [Compound 155] ([NMeAhp(2)]IA[Aze][NMeCha][Sar][hPhe(3-Cl-4-CF3)]P[Ac5c][NMeGly(cPent)][NMeD]-{Azetidin(1-yl)}; lactam N-11) noted as 1.6

Lab book: IC50 of CC[C@H](C)[C@@H]1NC(=O)[C@H](CC(C)C)N(C)C(=O)C[C@@H](C(=O)N2CCCCC2)N(C)C(=O)[C@H](C2CCCCC2)N(C)C(=O)C2(CCCC2)NC(=O)[C@@H]2C[C@@H](c3ccccc3)CN2C(=O)[C@H](CCc2ccc(C(F)(F)F)c(Cl)c2)NC(=O)CN(C)C(=O)[C@H](CC2CCCCC2)N(C)C(=O)CN(C)C(=O)CN(C)C1=O [Compound 90] ([NMeL]I[Sar][Sar][NMeCha][Sar][hPhe(3-Cl-4-CF3)][Pro(trans-4-Ph)][Ac5c][NMeChg][NMeD]-Piperidide; lactam N-11) noted as 5

Lab book: IC50 of CC[C@H](C)[C@@H]1NC(=O)[C@H](CC(C)C)N(C)C(=O)C[C@@H](C(=O)N2CCCCC2)N(C)C(=O)[C@H](CCCCC(F)F)N(C)C(=O)C2(CCCC2)NC(=O)[C@@H]2CCCN2C(=O)[C@H](CCc2ccc(C(F)(F)F)c(Cl)c2)NC(=O)CN(C)C(=O)[C@H](CC2CCCCC2)N(C)C(=O)[C@@H]2CCN2C(=O)[C@H](C)N(C)C1=O [Compound 1123] ([NMeL]I[NMeA][Aze][NMeCha][Sar][hPhe(3-Cl-4-CF3)]P[Ac5c][NMeNle(6-CHF2)][NMeD]-Piperidide; lactam N-11) noted as 180

Further cases:
Lab book: IC50 of CC[C@H](C)[C@@H]1NC(=O)[C@H](CC(C)C)N(C)C(=O)C[C@@H](C(=O)N2CCOCC2)N(C)C(=O)[C@H](C2CCCC2)N(C)C(=O)C2(CCCC2)NC(=O)[C@@H]2CCCN2C(=O)[C@H](CCc2ccc(C(F)(F)F)c(Cl)c2)NC(=O)CN(CC)C(=O)[C@H](CC2CCCCC2)N(C)C(=O)[C@@H]2CCN2C(=O)[C@H](C)N(C)C1=O [Compound 1272] ([NMeL]I[NMeA][Aze][NMeCha][NEtG][hPhe(3-Cl-4-CF3)]P[Ac5c][NMeGly(cPent)][NMeD]-Morpholide; lactam N-11) noted as 2

Lab book: IC50 of CCC[C@H]1C(=O)N[C@@H]([C@@H](C)CC)C(=O)N(C)CC(=O)N(C)CC(=O)N(C)[C@@H](CC2CCCCC2)C(=O)N(C)CC(=O)N[C@@H](CCc2ccc(C(F)(F)F)c(Cl)c2)C(=O)N2C[C@H](OCC)C[C@H]2C(=O)NC2(CCCC2)C(=O)N(C)[C@@H](C2CCCCC2)C(=O)N(C)[C@H](C(=O)N2CCCC2)CC(=O)N1C [Compound 1267] ([NMeNva]I[Sar][Sar][NMeCha][Sar][hPhe(3-Cl-4-CF3)][Hyp](Et)[Ac5c][NMeChg][NMeD]-Pyrrolidide; lactam N-11) noted as 0.36

Data origin: patent US20240148821A1
